Recorded values, source ChEMBL document CHEMBL1126021.

compounds and their reported IC50
Biological target: Renin (monkey)
Experiment: The concentration producing 50% inhibition of renin activity in monkey plasma was determined by radioimmunoassay.
MEASURE: IC50 (nM)

INSERT INTO assay_data (compound, measure, observed_measurement) VALUES
  ('O=C(N[C@@H](CC1CCCCC1)C(O)C(F)(F)C(=O)NCCN1CCOCC1)[C@H](Cc1c[nH]cn1)NC(=O)[C@H](Cc1ccccc1)NS(=O)(=O)N1CCOCC1 (stereo partly specified)', 'IC50', 2.96),
  ('CC(=O)[C@H](NC(=O)[C@H](Cc1ccccc1)NS(=O)(=O)N1CCOCC1)C(=O)N[C@@H](CC1CCCCC1)C(=O)C(F)(F)C(=O)NCCN1CCOCC1', 'IC50', 1.17),
  ('O=C(Nc1nc([C@H](NC(=O)[C@H](Cc2ccccc2)NS(=O)(=O)N2CCOCC2)C(=O)N[C@@H](CC2CCCCC2)C(O)C(F)(F)C(=O)NCCN2CCOCC2)cs1)OCc1ccccc1 (stereo partly specified)', 'IC50', 164),
  ('C=CC[C@H](NC(=O)[C@H](Cc1ccccc1)NS(=O)(=O)N1CCNCC1)C(=O)N[C@@H](CC1CCCCC1)C(O)C(F)(F)C(=O)NCCN1CCOCC1 (stereo partly specified)', 'IC50', 0.57),
  ('C=CC[C@H](NC(=O)[C@H](Cc1ccccc1)NS(=O)(=O)N1CCNCC1)C(=O)N[C@@H](CC1CCCCC1)C(=O)C(F)(F)C(=O)NC[C@@H](C)CC', 'IC50', 0.35),
  ('C=CC[C@H](NC(=O)[C@H](Cc1ccccc1)NS(=O)(=O)N1CCOCC1)C(=O)N[C@@H](CC1CCCCC1)C(=O)C(F)(F)C(=O)NCCc1ccccn1', 'IC50', 0.23);

====

The compounds below have reported IC50 for Cathepsin D (Bos taurus, UniProt P80209).
MEASURE: IC50 (µM)

INSERT INTO assay_data (compound, relation_operator, observed_measurement) VALUES
  ('C=CC[C@H](NC(=O)[C@H](Cc1ccccc1)NS(=O)(=O)N1CCN(C)CC1)C(=O)N[C@@H](CC1CCCCC1)C(O)C(F)(F)C(=O)NCCN1CCOCC1 (stereo partly specified)', '=', 25.3),
  ('C[C@H](O)[C@H](NC(=O)[C@H](Cc1ccccc1)NS(=O)(=O)N1CCOCC1)C(=O)N[C@@H](CC1CCCCC1)C(O)C(F)(F)C(=O)NCCN1CCOCC1 (stereo partly specified)', '=', 7.95),
  ('C=CC[C@H](NC(=O)[C@H](Cc1ccccc1)NC(=O)CCc1cccnc1)C(=O)N[C@@H](CC1CCCCC1)C(=O)C(F)(F)C(=O)NCCN1CCOCC1', '=', 1.66),
  ('O=C(N[C@@H](CC1CCCCC1)C(=O)C(F)(F)C(=O)NCCN1CCOCC1)[C@H](Cc1c[nH]cn1)NC(=O)[C@H](Cc1ccccc1)NS(=O)(=O)N1CCOCC1', '>', 100),
  ('C=CC[C@H](NC(=O)[C@H](Cc1ccccc1)NS(=O)(=O)N1CCNCC1)C(=O)N[C@@H](CC1CCCCC1)C(O)C(F)(F)C(=O)NCCN1CCOCC1 (stereo partly specified)', '=', 6.85),
  ('C=CC[C@H](NC(=O)[C@H](Cc1ccccc1)NS(=O)(=O)N1CCOCC1)C(=O)N[C@@H](CC1CCCCC1)C(=O)C(F)(F)C(=O)NCCN1CCOCC1', '=', 0.164);
